ASSAY REMARKS: viability gain of MRP-1-high H69AR cells under doxorubicin, pilot screen, MRP-1 activator project, CellTiter-Glo, duplicate (AID 807);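 note: compound pretreatment 18-22 h then 72 h combined with doxorubicin; 0% = doxorubicin alone and 100% = vehicle without doxorubicin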
CONDITIONS: H69AR viability with doxorubicin, CellTiter-Glo luminescence; at 10 µM; stronger effect = higher value
Active and inactive are the calls of the source.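 Rule for the calls: active = viability increase at or above a cutoff of the median across tested compounds plus 3 SD (cut at about 8.5% in these data, passing the limit was not always enough); inconclusive = some gains above the cutoff, reason not given; inactive = the rest.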
Measured viability increase by item

Solved entries:
CCN(CC)C(=O)C(C)N(C#N)c1nc(NC(C)C)nc(NC(C)C)n1 (stereo not given) :: -3.7% (inactive)
O=C1CC(N2CCN(c3nc4ccccc4s3)CC2)C(=O)N1c1ccc(F)cc1 (stereo not given) :: 6.28% (inactive)
CCOC(=O)N1CCN(CC(=O)Nc2cc(OCC)ccc2OCC)CC1 :: -6.22% (inactive)

Inquiry: Any idea what its viability increase is? The molecule is O=C1C2CCCN2C(c2ccc(F)cc2)N1c1cccc(Cl)c1 (stereo not given)
Reply text: -0.91% (inactive)

Inquiry: Can you handle COc1ccccc1-c1nc(NC(C)=O)n[nH]1 next?
Reply text: -4.21% (inactive)

Inquiry: Can you handle COc1ccc(C(=O)NCC23C=CC(O2)C2C(=O)N(Cc4ccccc4)C(=O)C23)cc1 (stereo not given) next?
Reply text: -0.77% (inactive)

Inquiry: Can you handle CCCCNc1ncnc2c1cnn2-c1ccccc1 next?
Reply text: -6.48% (inactive)

Inquiry: Can you handle O=C(c1ccccc1S(=O)(=O)NCc1ccccc1)N1CCCC1 next?
Reply text: -0.09% (inactive)

Inquiry: Can you handle CSc1nnc2c(n1)OC(c1cn(C)c3ccccc13)N(C(C)=O)c1ccccc1-2 (stereo not given) next?
Reply text: -2.79% (inactive)

Inquiry: Can you handle O=C(c1cc(-c2ccccc2O)on1)N1CCc2ccccc2C1 next?
Reply text: -0.83% (inactive)

Inquiry: Can you handle Fc1ccc(Nc2nc(N3CCOCC3)c3ccccc3n2)cc1 next?
Reply text: -3.18% (inactive)

Inquiry: Can you handle Cc1ccc2nc(NC3=NCN(Cc4ccco4)CN3)nc(C)c2c1 next?
Reply text: -7.05% (inactive)

Inquiry: Can you handle CC(=O)N1CCC(C(=O)Nc2ccccc2)(N(Cc2ccccc2)C(=O)c2cccnc2)CC1 next?
Reply text: -0.15% (inactive)

Inquiry: Can you handle Cc1nc2ccc3nc(NC(=O)C4COc5ccccc5O4)sc3c2s1 (stereo not given) next?
Reply text: -4.93% (inactive)

Inquiry: Can you handle Cc1ccc(CC2S/C(=C(/C#N)C(=O)NCc3ccco3)N(c3ccccc3)C2=O)cc1 (stereo not given) next?
Reply text: -7.76% (inactive)

Inquiry: Can you handle CCC(c1ccccc1)c1nc(-c2ccccn2)no1 (stereo not given) next?
Reply text: 1.44% (inactive)

Inquiry: Can you handle O=C(NC1CCS(=O)(=O)C1)c1ccccc1C(=O)c1ccccc1 (stereo not given) next?
Reply text: -0.35% (inactive)

Inquiry: Can you handle O=C(NCN1CCc2ccccc2C1)c1cnccn1 next?
Reply text: -3.49% (inactive)

Inquiry: Can you handle COc1cccc(C2NC(=O)NC(C)=C2C(=O)Nc2cc(OC)ccc2OC)c1 (stereo not given) next?
Reply text: -0.51% (inactive)

Inquiry: Can you handle Cc1ccccc1C(=O)Nc1ccccc1 next?
Reply text: -0.99% (inactive)

Inquiry: Can you handle CCN(Cc1ccccc1)S(=O)(=O)c1ccc(C(=O)Nc2nnc(C3CC3)o2)cc1 next?
Reply text: -4.27% (inactive)

Inquiry: Can you handle CCOCCn1c(CN(Cc2ccccc2)Cc2ccccc2)nc2c1c(=O)n(C)c(=O)n2C next?
Reply text: -2.62% (inactive)

Inquiry: Can you handle Cc1ccccc1NC(=O)CCN1CCN(Cc2ccccc2)CC1 next?
Reply text: -3.29% (inactive)

Inquiry: Can you handle CC1(C)NC(=O)N(CC(O)COc2ccc(N3C(=O)c4ccccc4C3=O)cc2)C1=O (stereo not given) next?
Reply text: -1.32% (inactive)

Inquiry: Can you handle c1ccc(-c2nnc(SCc3nc4ccccc4[nH]3)n2Cc2ccco2)nc1 next?
Reply text: -1.33% (inactive)

Inquiry: Can you handle NCCOc1ccccc1-c1ccccc1 next?
Reply text: -3% (inactive)

Inquiry: Can you handle Cc1cc(OCc2ccc(F)cc2)nc(-c2ccccc2O)n1 next?
Reply text: 2.19% (inactive)

Inquiry: Can you handle O=C(c1cnn2ccccc12)N1CCc2ccccc21 next?
Reply text: -2.13% (inactive)

Origin of measurements: PubChem BioAssay
